Exercise: for every item that follows, state its recorded solubility at 24 h.
- ASSAY NOTES: Solubility in gastric juice or intestinal juice model fluid (precipitation method using DMSO)
- Type: physicochemical
- RUN CONDITIONS: pH 6.8, kinetic from dmso stock, 2nd fluid for Disintegration Test of Japanese Pharmacopoeia (pH: 6.8), room temperature, read-out: Solubility (μg/mL) 2nd fluid

COc1cc(OCc2ccc(C(F)(F)F)cn2)ccc1-c1nc(-c2ccc(F)nc2)n(C)c1Br: < 0.4 µg/mL
COc1cc(OCc2ccc(C(F)(F)F)nc2)c(C)cc1-c1cnc(-c2ccc(F)nc2)[nH]1: < 8.1 µg/mL
COCCOc1cc(OCc2ccc(C(F)(F)F)cn2)ccc1-c1nc(-c2ccc(Cl)nc2)[nH]c1Cl: < 9.6 µg/mL

Switching to the query record.
Qu. // returns reported solubility at 24 h for input COc1cc(OCc2ncc(C(F)(F)F)cc2F)ccc1-c1[nH]c(CCC(F)(F)F)nc1Cl
Ans. < 0.4 µg/mL
